experiment: Dissociation constant, pKa of the compound; format: physicochemical
quantity-kind: pKa

- smiles-string: "O=C(CN1CCC(Cc2ccccc2)CC1)c1c[nH]c2cc(O)ccc12"
  pKa: 9.63
- smiles-string: "CS(=O)(=O)Nc1ccc2c(C(=O)CN3CCC(Cc4ccccc4)CC3)c[nH]c2c1"
  pKa: 9.97
